# melting point values compiled below

| compound | melting point |
| --- | --- |
| CC(C)(C)OC(=O)Nc1cc(Sc2ccc3c(C(=O)O)cccc3c2)ncn1 | 208 to 209 °C |
| Cn1c(=O)nc(-c2ccccc2)c2cc(Cl)sc21 | 136 to 140 °C |
| CCCCOc1cc(C(=O)O)cc(N)c1C(=O)c1ccccc1 | 202 to 204 °C |
| CC(C)(CCCSCCNS(=O)(=O)c1ccc(Cl)cc1)C(=O)O | 107 to 109 °C |
| Cc1c(-c2ccccc2)oc2c(C(=O)NCCCCl)cccc2c1=O | 193 to 194 °C |
| CC1(C)NC(=O)N(c2ccc([N+](=O)[O-])c(Cl)c2)C1=O | 144 to 145 °C |
| CCCCCCCCCCCCCCCC(=O)OCc1cc2c(s1)-c1ccccc1OC2c1ccccc1 (stereo not given) | 64 to 65 °C |
| CN1C(=O)C(C2=COc3ccccc3O2)=C(c2cn(C(=O)OC(C)(C)C)c3cc(OCc4ccccc4)ccc23)C1=O | 88 °C |
| COc1cc(OC)cc(S(=O)(=O)c2ccc(N)cc2)c1 | 128 to 130 °C |
| O=C1CCC(N2C(=O)c3ccc(CNC(=O)C4CC4)cc3C2=O)C(=O)N1 (stereo not given) | 163 to 165 °C |
| CC1(C)[C@H](Cl)CC[C@]2(CI)OC(=O)C[C@H]12 | 127 to 128 °C |
| COC(=O)c1ccc2oc(-c3cc(C)ccc3OC(C)C)cc(=O)c2c1 | 149 to 151 °C |
| O=C1N(CC2COCCO2)c2ccccc2C12COc1cc3c(cc12)OCC3 (stereo not given) | 162 to 164 °C |
| C=CCOC(=O)Cc1cccc(NC(=O)NCNC(=O)c2ccccc2C(=O)c2ccccc2)c1 | 125 to 127 °C |
| COc1cc2cn[nH]c(=O)c2cc1OC | 254 to 256 °C |
| CC(=O)NC1Cc2ccc(Cl)cc2C1 (stereo not given) | 117 to 119 °C |
| FC(F)(F)Oc1ccc2c(c1)nc(/C=C/c1ccccc1)n2-c1ccccn1 | 92 to 93 °C |
| CC(=O)NNc1ccnc2c(NC(=O)c3c(Cl)cccc3Cl)cc(C)cc12 | 263 to 266 °C |
| CC(C)(OCc1cc2cc(C(F)(F)F)ccc2n1S(=O)(=O)c1ccc2c(c1)OCO2)C(=O)O | 130 to 132 °C |
| Nc1nc(N)nc(-c2ccc(-c3ccc(F)cc3)cc2)n1 | > 260 °C |

meta.source: a melting point compilation (Tetko et al.; mined from patent text by program, amines drawn as free bases though some values may be those of a salt)
